- study-target: HRgpA-6H (Porphyromonas gingivalis) (UniProt P28784)
- assay-procedure: ELISA on coated HRgpA-6H, OD relative to parental Fab
// Ratio OD(Variant)/OD(WT) lookup, one value per entry

# binder, Ratio OD(Variant)/OD(WT)
data = [
    ("KB001 mouse Fab variant VL S57K (Fab, V domains shown) VH: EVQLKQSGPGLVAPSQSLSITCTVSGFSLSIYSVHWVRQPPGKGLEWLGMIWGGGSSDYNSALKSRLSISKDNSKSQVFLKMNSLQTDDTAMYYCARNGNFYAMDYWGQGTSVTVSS VL: QIVLTQSPAIMSASLGERVTMTCTASSSVSSSFLHWYQQKPGSSPQLWIYSTSNLAKGVPARFSGSGSGTSYSLTISSMEAEDAATYYCHQYHHSPYIYTFGGGTKLEIK", "0.873 fold"),
    ("KB001 mouse Fab variant VL S95F (Fab, V domains shown) VH: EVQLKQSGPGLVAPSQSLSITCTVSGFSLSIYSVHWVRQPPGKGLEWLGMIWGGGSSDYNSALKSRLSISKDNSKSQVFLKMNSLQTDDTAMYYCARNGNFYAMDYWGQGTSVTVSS VL: QIVLTQSPAIMSASLGERVTMTCTASSSVSSSFLHWYQQKPGSSPQLWIYSTSNLASGVPARFSGSGSGTSYSLTISSMEAEDAATYYCHQYHHFPYIYTFGGGTKLEIK", "0.911 fold"),
]
